- assay-target: human FXR (NR1H4) (Homo sapiens)
- Sequence (Q96RI1 1-476 isoform Q96RI1-1): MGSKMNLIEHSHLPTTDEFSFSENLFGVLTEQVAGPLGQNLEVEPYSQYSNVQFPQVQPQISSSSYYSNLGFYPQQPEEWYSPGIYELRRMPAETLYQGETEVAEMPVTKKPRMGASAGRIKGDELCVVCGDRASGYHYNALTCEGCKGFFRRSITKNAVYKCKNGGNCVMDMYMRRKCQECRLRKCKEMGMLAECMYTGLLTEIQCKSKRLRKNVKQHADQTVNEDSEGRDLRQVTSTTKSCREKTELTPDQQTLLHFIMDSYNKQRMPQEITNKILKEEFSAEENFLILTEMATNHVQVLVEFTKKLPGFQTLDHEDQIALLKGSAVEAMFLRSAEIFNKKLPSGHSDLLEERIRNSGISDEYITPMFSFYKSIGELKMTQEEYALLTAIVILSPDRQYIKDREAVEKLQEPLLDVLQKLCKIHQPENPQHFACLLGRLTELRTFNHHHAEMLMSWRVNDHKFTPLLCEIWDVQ
- protocol: Human FXR (NR1H4) agonist assessment, FXRE-NanoLuc reporter in HEK293T cells
- Format: cell-based
- experimental-setup: FXR activation, HEK293T FXRE-NanoLuc reporter, 24 hr; read-out: EC50
pEC50: −log10 of the molar value.
value-type: pEC50

# item-smiles, assay-target, value-type, recorded-result
records = [
    ("CC[C@H]1[C@@H](O)[C@@H]2[C@H](CC[C@]3(C)[C@@H]([C@H](C)CCC(=O)NS(C)(=O)=O)CC[C@@H]23)[C@@]2(C)CC[C@H](F)C[C@@H]12", "human FXR (NR1H4) (Homo sapiens)", "pEC50", "5.00 to 6.00"),
    ("CC[C@H]1[C@@H](O)[C@@H]2[C@H](CC[C@]3(C)[C@@H]([C@H](C)CCNC(=O)C(=O)NS(=O)(=O)c4cc(F)ccc4F)CC[C@@H]23)[C@@]2(C)CCCC[C@@H]12", "human FXR (NR1H4) (Homo sapiens)", "pEC50", "> 6.00"),
    ("CC[C@H]1[C@@H](O)[C@@H]2[C@H](CC[C@]3(C)[C@@H]([C@H](C)CCOC(=O)NS(=O)(=O)c4ccc(C(C)(C)CF)cc4)CC[C@@H]23)[C@@]2(C)CCCC[C@@H]12", "human FXR (NR1H4) (Homo sapiens)", "pEC50", "> 6.00"),
]
